The origin of these recorded values is paper PMC8815882.

# Test system: M. mycetomatis genome strain MM55
# Measurement Notes: CLSI M38-A2 based in vitro susceptibility screening (XTT or resazurin), growth at fixed concentration
# Assay type: cell-based, Madurella mycetomatis
# Applied Conditions: Madurella mycetomatis, 100 uM, third replicate column; read-out: Percentage survival at 100um, 100 uM A
As shown below, each of these compounds has a reported activity at 100 µM value.
The figure you give is taken to be in %; do not add the unit.

> print(dat)
                                   compound                      system.tested  output.unit  quantitative.readout
1  Oc1cccc(C(Nc2nccs2)c2ccc3cccnc3c2O)c1 (stereo not drawn)  M. mycetomatis genome strain MM55            %                  10.8
2      Clc1ccc(Cn2c(CN3CCCC3)nc3ccccc32)cc1  M. mycetomatis genome strain MM55            %                  4.45
3                      Nc1ccc2oc(=O)ccc2c1I  M. mycetomatis genome strain MM55            %                  53.2
4  COc1cccc(N2CCN(C3=Nc4c(F)cccc4[C@H](CC(=O)O)N3c3cc(C(F)(F)F)ccc3OC)CC2)c1  M. mycetomatis genome strain MM55            %                  86.5

Record CN1CCN(Cc2ccc(-c3cnc4[nH]cc(-c5ccc6[nH]ccc6c5)c4c3)cc2)CC1 . Reported activity at 100 µM: 10.2

Record N#Cc1cc([N+](=O)[O-])ccc1Oc1ccccc1Cl . Reported activity at 100 µM: 51.7

Record O=C(NCCN1CCCCC1)c1cccc(C(F)(F)F)c1 . Reported activity at 100 µM: 75.1

Record O=C(c1cc(O)nc2ccccc12)N1CCN(c2ccccc2)CC1 . Reported activity at 100 µM: 74.4

Record O=C(NC1CCCc2c1[nH]c1ccc(Cl)cc21)c1ccccn1 (stereo not drawn) . Reported activity at 100 µM: 5.67
